# Assayed Target: Nrf2-Keap1 complex (Homo sapiens, UniProt Q14145)
# Sequence (Q14145 whole entry, one chain of several): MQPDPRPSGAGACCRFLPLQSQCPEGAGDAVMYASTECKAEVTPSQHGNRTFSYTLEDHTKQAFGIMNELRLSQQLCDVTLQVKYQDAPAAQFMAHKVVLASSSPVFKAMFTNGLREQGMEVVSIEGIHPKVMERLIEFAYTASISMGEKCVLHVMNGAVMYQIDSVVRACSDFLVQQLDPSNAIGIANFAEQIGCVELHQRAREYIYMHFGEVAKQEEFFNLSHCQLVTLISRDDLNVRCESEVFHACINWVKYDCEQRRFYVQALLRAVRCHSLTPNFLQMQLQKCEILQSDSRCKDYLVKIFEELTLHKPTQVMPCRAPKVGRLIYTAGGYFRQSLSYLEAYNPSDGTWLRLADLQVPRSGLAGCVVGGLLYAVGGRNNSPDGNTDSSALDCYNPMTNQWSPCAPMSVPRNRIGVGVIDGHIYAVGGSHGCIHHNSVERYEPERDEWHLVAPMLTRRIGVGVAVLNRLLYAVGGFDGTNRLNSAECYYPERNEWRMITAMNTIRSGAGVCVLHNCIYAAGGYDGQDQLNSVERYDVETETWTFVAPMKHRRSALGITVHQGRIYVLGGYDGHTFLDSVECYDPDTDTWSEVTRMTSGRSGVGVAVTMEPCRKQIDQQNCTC
# Assay Procedure: cell-based
# Format: cell-based
Collected Activation 200 nL values appear next to each entry.

>  <Compound>
CC(=O)O[C@H]1CCC2(C)C3=C(CCC2C1(C)C)[C@@]1(C)CC[C@@H](C(C)CCC=C(C)C)[C@]1(C)CC3 (stereo partly drawn) [EUPHOLACETATE]

>  <Activation 200 nL>
111%

$$$$
>  <Compound>
CC(=O)O[C@@H]1CC2C(C)(C)[C@H](O)C=C[C@]2(C)C2CC[C@]3(C)C(=CC(=O)O[C@H]3c3ccoc3)[C@@]21C (stereo partly drawn) [3-alpha-HYDROXYDEOXYGEDININ]

>  <Activation 200 nL>
94%

$$$$
>  <Compound>
CC(=O)O[C@H]1CC[C@]2(C)[C@H]3CC[C@@]4(C)[C@H](c5ccoc5)OC(=O)[C@H]5O[C@]54[C@]3(C)[C@H](OC(C)=O)C[C@H]2C1(C)C [3beta-ACETOXYDEOXODIHYDROGEDUNIN]

>  <Activation 200 nL>
42%

$$$$
>  <Compound>
CC(=O)O[C@H]1C[C@@H](OC(C)=O)C(C)(C)[C@@H]2CC(=O)[C@]3(C)[C@H](CC[C@@]4(C)[C@H](c5ccoc5)OC(=O)[C@H]5O[C@]543)[C@@]12C

>  <Activation 200 nL>
128%

$$$$
>  <Compound>
COc1cc(O)c2c(=O)cc(C)oc2c1CC=C(C)C

>  <Activation 200 nL>
45%

$$$$
>  <Compound>
COC(=O)[C@H](O)[C@H]1C(C)(C)[C@H](OC(C)=O)[C@@H]2CC3=C4CC(=O)O[C@@H](c5ccoc5)[C@]4(C)CC[C@@H]3[C@@]1(C)C2=O [SWIETENOLIDE-3-ACETATE]

>  <Activation 200 nL>
115%

$$$$
>  <Compound>
[H]/N=C(\N/C(=N/[H])NCCCCCCNC(=N)NC(=N)Nc1ccc(Cl)cc1)Nc1ccc(Cl)cc1 [CHLORHEXIDINE, reference compound]

>  <Activation 200 nL>
67%

$$$$
>  <Compound>
O=C1OC(=O)[C@H]2[C@@H]1[C@@H]1CC[C@H]2O1

>  <Activation 200 nL>
10%

$$$$
>  <Compound>
O=C(C=C(O)c1ccccc1)c1ccccc1O [2′,beta-DIHYDROXYCHALCONE]

>  <Activation 200 nL>
−18%

$$$$
>  <Compound>
COc1ccc2ccc(=O)oc2c1CC=C(C)C

>  <Activation 200 nL>
52%

$$$$
>  <Compound>
O=C1C[C@@H](c2ccc(O)c(O)c2)Oc2cc(O)cc(O)c21

>  <Activation 200 nL>
18%

$$$$
>  <Compound>
C[C@@H]1C(=O)O[C@H]2[C@H]1CC[C@@]1(C)C=CC(=O)[C@@]3(C)O[C@@]213 [EPOXY(4,5alpha)-4,5-DIHYDROSANTONIN]

>  <Activation 200 nL>
186%

$$$$
>  <Compound>
O=C(CC[N+](=O)[O-])OC[C@H]1O[C@@H](O)[C@H](OC(=O)CC[N+](=O)[O-])[C@@H](OC(=O)CC[N+](=O)[O-])[C@@H]1OC(=O)CC[N+](=O)[O-] [[…]]

>  <Activation 200 nL>
40%

$$$$
>  <Compound>
COc1cc(OC)c2c(=O)c(O)c(-c3ccc(OC)c(OC)c3)oc2c1

>  <Activation 200 nL>
8%

$$$$
>  <Compound>
CC1(C)C(=O)C=C[C@]2(C)[C@H]3CC[C@@]4(C)[C@H](c5ccoc5)OC(=O)[C@H]5O[C@]54[C@]3(C)C=C[C@@H]12 [7-DESACETOXY-6,7-DEHYDROGEDUNIN]

>  <Activation 200 nL>
−9%

$$$$
>  <Compound>
CC(=O)O[C@@H]1C[C@H]2C(C)(C)[C@@H](O)CC[C@]2(C)[C@H]2CC[C@@]3(C)[C@H](c4ccoc4)OC(=O)[C@H]4O[C@]43[C@@]21C [beta-DIHYDROGEDUNOL]

>  <Activation 200 nL>
124%

$$$$
>  <Compound>
CC(=O)C(=Cc1ccccc1)CC(=O)O

>  <Activation 200 nL>
43%

$$$$
>  <Compound>
O=c1ccn([C@@H]2O[C@H](COP(=O)([O-])OP(=O)([O-])OP(=O)([O-])O)[C@@H](O)[C@H]2O)c(=O)[nH]1.[Na+].[Na+].[Na+] [URIDINETRIPHOSPHATETRISODIUM]

>  <Activation 200 nL>
16%

$$$$
>  <Compound>
C[C@]12CCC(=O)C=C1CCc1ccc(O)cc12

>  <Activation 200 nL>
18%

$$$$
>  <Compound>
CC(=O)[O-].CC(=O)[O-].[Cd+2] [CADMIUMACETATE]

>  <Activation 200 nL>
−6%

$$$$
>  <Compound>
CC1(C)C(=O)CC[C@]2(C)[C@H]3CC[C@]4(C)C(=CC(=O)O[C@H]4c4ccoc4)[C@]3(C)[C@H](O)C[C@@H]12 [DIHYDRO-7-DESACETYLDEOXYGEDUNIN]

>  <Activation 200 nL>
96%

$$$$
>  <Compound>
CC(=O)N1CCN(c2ccc(OCC3CO[C@](Cn4ccnc4)(c4ccc(Cl)cc4Cl)O3)cc2)CC1 (stereo partly drawn) [KETOCONAZOLE, reference compound]

>  <Activation 200 nL>
33%

$$$$
>  <Compound>
CC1(C)C(=O)C=C[C@]2(C)[C@H]3CC[C@@]4(C)[C@H](c5ccoc5)OC(=O)[C@H]5O[C@]54[C@]3(C)C(=O)C[C@@H]12

>  <Activation 200 nL>
8%

$$$$
>  <Compound>
O=C(/C=C/c1ccccc1)c1ccc(O[C@@H]2O[C@H](CO)[C@@H](O)[C@H](O)[C@H]2O)cc1O [2′,4′-DIHYDROXYCHALCONE4′-GLUCOSIDE]

>  <Activation 200 nL>
121%

$$$$
>  <Compound>
CCCCCCCCCCCCCCCc1ccco1

>  <Activation 200 nL>
32%

$$$$
>  <Compound>
COc1cc([C@@H]2c3cc4c(cc3[C@H](OC(C)=O)[C@H]3COC(=O)[C@H]23)OCO4)cc(OC)c1OC [PODOPHYLLOTOXINACETATE]

>  <Activation 200 nL>
10%

$$$$
>  <Compound>
COC(=O)NC(=S)Nc1ccccc1NC(=S)NC(=O)OC

>  <Activation 200 nL>
21%

$$$$

Origin of the recorded values: patent US9200046B2
